Property: IC50; scope: individual binders
molecular target: HLA-A*0203 (human); experiment: competition with 125I-labelled probe peptide for purified HLA, gel filtration
Where no end group is shown, it is not given here. [ ]: non-standard residue; d: D form. Abu = CC[C@H](N)C(=O)O

Here's what some known entries look like.
KTFGSLAFV [Her2/neu.369T2V9] = 1010 nM
VLIQRNPQV [Her2/neu.153V9] = 135 nM
SLISAVVGV [Her2/neu.653.L2V9] = 16 nM

[in] Consider the binder shown here: YLIMVK[Abu]WMV (also called YLIMVKBWMV) [Her2/neu.952L2B7V10] What is its recorded IC50?
[out] 77 nM
